Molecular target: T1, Human complement Factor D, mature (human, UniProt P00746 27-253)
T1 construct: In the TR-FRET assay the factor D was bought from Complement Technology; In the hemolysis assay it was the factor D of C1q-depleted human serum; also called human Factor D; hFD
T1 sequence (P00746 27-253): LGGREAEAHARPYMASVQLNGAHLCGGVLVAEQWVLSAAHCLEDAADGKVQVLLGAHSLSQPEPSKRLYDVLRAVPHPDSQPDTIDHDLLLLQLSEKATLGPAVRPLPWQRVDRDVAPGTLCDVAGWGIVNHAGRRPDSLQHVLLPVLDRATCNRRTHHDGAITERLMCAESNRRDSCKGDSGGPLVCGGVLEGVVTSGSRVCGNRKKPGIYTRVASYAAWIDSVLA
Test: SPR (Biacore T200): Fab captured with anti-huFab kit, human Factor D injected, 25 C, 1:1 model;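 further: sensorgrams were corrected by subtracting a blank injection of running buffer before fitting kinetic and affinity constants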

# binder, unit tag, koff
rows = [
    ("hu20D12.v2.9 Fab (Fab, V domains shown) VH: EVQLVQSGAEVKKPGASVKVSCKASGYTFTSYYMYWVRQAPGQGLEWIGWINPTSGGTNFNEKFKSRATLTVDTSTSTAYLELSSLRSEDTAVYYCAREGGFAYWGQGTLVTVSS VL: DIQMTQSPSSLSASVGDRVTITCKASQNVDTDVAWFQQKPGKAPKGLIYSASSRYSGVPSRFSGSGSGTDFTLTISSLQPEDFATYYCQQYNNYPLTFGQGTKVEIKR", "s⁻¹", 0.0063),
    ("hu20D12.v2.2 Fab (Fab, V domains shown) VH: EVQLVQSGAEVKKPGASVKVSCKASGYTFTSYYMYWVRQAPGQGLEWIGEINPTSGDTNFNEKFKSRATLTVDTSTSTAYLELSSLRSEDTAVYYCAREGGFAYWGQGTLVTVSS VL: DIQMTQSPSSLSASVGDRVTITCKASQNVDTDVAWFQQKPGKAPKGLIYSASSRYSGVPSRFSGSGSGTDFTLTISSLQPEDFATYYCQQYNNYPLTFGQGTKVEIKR", "s⁻¹", 0.00095),
    ("hu20D12.v2.15 Fab (Fab, V domains shown) VH: EVQLVQSGAEVKKPGASVKVSCKASGYTFTSYYMYWVRQAPGQGLEWIGEINPYSGETNFNEKFKSRATLTVDTSTSTAYLELSSLRSEDTAVYYCAREGGFAYWGQGTLVTVSS VL: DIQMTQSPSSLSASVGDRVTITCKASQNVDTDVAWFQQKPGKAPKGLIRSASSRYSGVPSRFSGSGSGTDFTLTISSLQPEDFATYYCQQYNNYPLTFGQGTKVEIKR", "s⁻¹", "6e-05"),
    ("AFD.v8 Fab (Fab, V domains shown, Variant of lampalizumab) VH: EVQLVQSGPELKKPGASVKVSCKASGYTFTNYGMNWVRQAPGQGLEWMGWINTYTGETTYAEDFKGRFVFSLDTSVSTAYLQISSLKAEDTAVYYCEREGGVNNWGQGTLVTVSS VL: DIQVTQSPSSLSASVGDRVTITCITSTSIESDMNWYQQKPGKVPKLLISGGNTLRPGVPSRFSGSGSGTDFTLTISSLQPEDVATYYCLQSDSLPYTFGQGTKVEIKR", "s⁻¹", 0.00021),
    ("hu20D12.v2.4 Fab (Fab, V domains shown) VH: EVQLVQSGAEVKKPGASVKVSCKASGYTFTSYYMYWVRQAPGQGLEWIGEINPTSGETNFNEKFKSRATLTVDTSTSTAYLELSSLRSEDTAVYYCAREGGFAYWGQGTLVTVSS VL: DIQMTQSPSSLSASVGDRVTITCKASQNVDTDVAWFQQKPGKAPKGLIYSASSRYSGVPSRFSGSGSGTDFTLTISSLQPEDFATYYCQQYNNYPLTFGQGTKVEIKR", "s⁻¹", 0.00049),
]

Each recorded value in this set is attributed to patent US20170145112A1.
